assay: Water solubility (equilibrium solubility at ambient temperature); type: physicochemical; details: water; free base; read-out: intrinsic solubility

compound	solubility
C[C@@H]1CN(C(=O)CN2CC(C)(C)OC[C@H]2C(=O)Nc2cc(Cl)cc3c2[nH]c2cnccc23)C[C@H](C)O1 [free base]	~10 µg/mL

* * *

experiment: Water solubility (equilibrium solubility at ambient temperature); assay type: physicochemical; conditions: in water; crystalline free base; read-out: solubility

molecule	solubility
C[C@@H]1CN(C(=O)CN2CC(C)(C)OC[C@H]2C(=O)Nc2cc(Cl)cc3c2[nH]c2cnccc23)C[C@H](C)O1 [free base]	~10 µg/mL

* * *

test: Water solubility (equilibrium solubility at ambient temperature); format: physicochemical; settings: thermodynamic from solid; in water; crystalline Form 1; read-out: solubility

molecule	solubility
C[C@@H]1CN(C(=O)CN2CC(C)(C)OC[C@H]2C(=O)Nc2cc(Cl)cc3c2[nH]c2cnccc23)C[C@H](C)O1 [Mesylate Form 1]	> 360 mg/mL
